PROTOCOL_NOTES: gradient 5% acetonitrile 3 min, to 50% in 2 min, to 85% in 15 min, held 3 min, 100 µL/min
CONDITION_NOTES: column: Zorbax Extend-C18 2.1 x 50 mm; eluents: water / acetonitrile, 0.1% formic acid
PROPERTY_NAME: RP-LC retention time (s)

COc1ccc2c(ccn2CCNC(=O)C2CC(=O)N(c3n[nH]c4ccccc34)C2)c1 (stereo not drawn) :: 722

P: CC(C)n1c(=O)oc2cc(-c3noc(-c4cc(F)ccc4F)n3)ccc21
Q: COc1cccc(CC(=O)NC(C)C(=O)Nc2nc3ccccc3[nH]2)c1 (stereo not drawn)
Ask: Looking at recorded values for RP-LC retention time, does P or Q come in lower? Kindly state the label of the option you pick.
Reply: Q

----------
PROTOCOL_NOTES: gradient 5% acetonitrile 3 min, to 50% in 2 min, to 85% in 15 min, held 3 min, 100 µL/min
CONDITION_NOTES: column: Zorbax Extend-C18 2.1 x 50 mm; eluents: water / acetonitrile, 0.1% formic acid
PROPERTY_NAME: RP-LC retention time (s)

CCOC(=O)c1cnc2nc(C)ccc2c1Nc1cc(F)ccc1Cl :: 764
O=C(NCc1ccc(F)cc1F)C1CCN(c2ncnc3c2oc2ccccc23)CC1 :: 761
Cc1noc2ncn(CC(=O)Nc3ccc(F)cc3)c(=O)c12 :: 735

----------
PROTOCOL_NOTES: gradient 5% acetonitrile 3 min, to 50% in 2 min, to 85% in 15 min, held 3 min, 100 µL/min
CONDITION_NOTES: column: Zorbax Extend-C18 2.1 x 50 mm; eluents: water / acetonitrile, 0.1% formic acid
PROPERTY_NAME: RP-LC retention time (s)

Cc1ccc(N2CCN(Cc3nc(-c4ccc(N5CCSCC5)nc4)no3)CC2)cc1 :: 959

P: Cc1ccccc1NC(=O)C1(C)Oc2cccnc2N(C)C1=O (stereo not drawn)
Q: CCOc1ccc(-c2nc(Cc3noc(-c4ccc(C#N)cc4)n3)c(C)o2)cc1
Ask: Sorting by RP-LC retention time in descending order, would P or Q appear first? Kindly state the label of the option you pick.
Reply: Q
(Q: 1160 s, P: 778 s)

----------
PROTOCOL_NOTES: gradient 5% acetonitrile 3 min, to 50% in 2 min, to 85% in 15 min, held 3 min, 100 µL/min
CONDITION_NOTES: column: Zorbax Extend-C18 2.1 x 50 mm; eluents: water / acetonitrile, 0.1% formic acid
PROPERTY_NAME: RP-LC retention time (s)

COc1ccc(-c2ccnc3cc(C(=O)Nc4ccc5c(c4)OCO5)nn23)cc1OC :: 848
NC(=O)C1CCN(S(=O)(=O)c2ccc3[nH]cc(C(=O)O)c(=O)c3c2)CC1 :: 596
COCCn1cc(CCNC(=O)Nc2ccc(C)cc2Cl)c2cccnc21 :: 790
Cc1ccc(-c2noc(CN3C(=O)COc4ccccc43)n2)cc1 :: 1030
O=C(C1CCCCCC1)N1CCC2(CC1)CC(O)CCO2 (configuration not stated) :: 681
COc1ccccc1CNC1=NCCNC12CCN(S(=O)(=O)c1ccc(Cl)cc1)CC2 :: 750
COc1cc(-c2nc(Cn3ccn4nc(-c5ccc(F)cc5)cc4c3=O)c(C)o2)cc(OC)c1OC :: 996
Cc1cc(C)n2nc(SCC(=O)NCc3ccccc3Cl)nc2n1 :: 698
O=C(Nc1ccc(N2CCN(c3ccccc3)C2=O)nc1)c1ccc(Cl)cc1 :: 1010
CC(C)NC(=O)CCNc1c(-c2ccc(F)cc2)nc2cnccn12 :: 616
Cc1cc(C(=O)N2CCC(c3nc4ccccc4s3)CC2)no1 :: 763
CC(C)n1c(SCC(=O)N2CCCCC2)nnc1-c1ccc2c(c1)OCCCO2 :: 761
CCCCOC(=O)c1ccc(NC(=O)c2snnc2CC)cc1 :: 1010
CSc1ccccc1C(=O)Nc1ccc2cn[nH]c2c1 :: 673
COc1ccc(-c2nnc(Cc3nc(-c4ccccc4C)no3)o2)cc1OC :: 957
O=C(NCC(F)(F)F)C1CCN(S(=O)(=O)CCN2C(=O)CCCC2=O)CC1 :: 637
COc1ccc(-c2ncc3c(n2)CCN(C(=O)Nc2ccccc2C(F)(F)F)C3)cc1 :: 939
CC(C)NC(=O)C1CCN(c2nc3ccc(-c4ccccc4)nc3s2)CC1 :: 927
O=S(=O)(c1cccc(-c2nnc(-c3ccc(F)cc3)o2)c1)N1CCCCC1 :: 1080
COc1cccc(OCC(O)CN2CCN(c3ccccc3)CC2)c1 (configuration not stated) :: 727
Cc1ccc(F)cc1NS(=O)(=O)c1cc2n(c1)CCN(CC(C)C)C2=O :: 840
COc1ccc2c(c1)C1(CCN(S(=O)(=O)c3ccc(F)cc3)C1)C(=O)N2 (configuration not stated) :: 820

----------
PROTOCOL_NOTES: gradient 5% acetonitrile 3 min, to 50% in 2 min, to 85% in 15 min, held 3 min, 100 µL/min
CONDITION_NOTES: column: Zorbax Extend-C18 2.1 x 50 mm; eluents: water / acetonitrile, 0.1% formic acid
PROPERTY_NAME: RP-LC retention time (s)

CCOc1cccc2sc(N(CCN(C)C)C(=O)c3ccco3)nc12 :: 710
CN(Cc1ccco1)C(=O)C1c2ccccc2CC(=O)N1Cc1ccccc1 (stereo not given) :: 861
O=C(O)/C(=C/c1ccccc1)c1ccccc1 :: 923
CCC(CN(C)Cc1ccccc1)NC(=O)CSc1nc2ccccc2n(C)c1=O (stereo not given) :: 653
COc1ccc(-c2cc(C(=O)Nc3ccc(F)cc3)sn2)cc1 :: 1090
CSc1ccccc1-c1nnc(NC(=O)c2cc(Cl)sc2Cl)o1 :: 937
COCC(=O)Nc1cc(=O)n(C)c(=O)n1C :: 552
CN1C(=O)N(C)C2(CCN(C(=O)c3ccco3)CC2)C1=O :: 597
O=C(NCc1ccccc1)c1ncccn1 :: 609
Cc1ccc(CNc2nnc(-c3nnc(C)o3)c3ccccc23)cc1 :: 830
CCOc1ccc(-n2c(N3CCSCC3)nc3cc(C(=O)OC)ccc3c2=O)cc1 :: 800
COc1ccc(OCCN2CC(=O)N(c3ccc(C)c(C)c3)[C@@H]3CS(=O)(=O)C[C@@H]32)cc1 :: 859
COc1ccc(N2CC(c3nnc(NC(=O)c4ccccc4Br)o3)CC2=O)cc1 (stereo not given) :: 703
CCc1ccc(C2=C(C)C(N3CCCN(C(=O)c4ccncc4)CC3)=NS2(=O)=O)cc1 :: 709
CC(=O)Nc1ccc(S(=O)(=O)N2CCc3c(c(-c4nnc(-c5ccccc5)o4)nn3C)C2)cc1 :: 775

----------
PROTOCOL_NOTES: gradient 5% acetonitrile 3 min, to 50% in 2 min, to 85% in 15 min, held 3 min, 100 µL/min
CONDITION_NOTES: column: Zorbax Extend-C18 2.1 x 50 mm; eluents: water / acetonitrile, 0.1% formic acid
PROPERTY_NAME: RP-LC retention time (s)

O=C(c1nc2ccccn2c1-c1ccc(Cl)cc1)N1CCCC1 :: 712
CN1CCN(Cc2ccc(C(=O)NCCC3=CCCCC3)cc2)C(=O)C1=O :: 698
COc1ccc(CC(=O)N2CCc3c(c(CO)nn3CC3CC3)C2)cc1 :: 715
CCCNc1cc(N2CCC(CCC(=O)NCc3cccc(F)c3)CC2)ncn1 :: 696

----------
PROTOCOL_NOTES: gradient 5% acetonitrile 3 min, to 50% in 2 min, to 85% in 15 min, held 3 min, 100 µL/min
CONDITION_NOTES: column: Zorbax Extend-C18 2.1 x 50 mm; eluents: water / acetonitrile, 0.1% formic acid
PROPERTY_NAME: RP-LC retention time (s)

CC(C)n1cnc(S(=O)(=O)N2CCCC(C(=O)Nc3cccc(C(F)(F)F)c3)C2)c1 (stereo not given) :: 890
CC1(C)CC(=O)C2=C(C1)N(CC1CCCO1)C(=O)C2(NC(=O)c1ccccc1)C(F)(F)F (stereo not given) :: 906
O=C(Cn1cccc1-c1nnc(C2CCC2)o1)N1CCc2ccccc2C1 :: 915
CCc1nnc(-c2ccc3ccn(CC(=O)N4CCN(c5ccccc5F)CC4)c3c2)o1 :: 892
COC(=O)c1cc(S(=O)(=O)N2CCCC2C(=O)Nc2ccc(C)cc2C)cn1C (stereo not given) :: 915

----------
PROTOCOL_NOTES: gradient 5% acetonitrile 3 min, to 50% in 2 min, to 85% in 15 min, held 3 min, 100 µL/min
CONDITION_NOTES: column: Zorbax Extend-C18 2.1 x 50 mm; eluents: water / acetonitrile, 0.1% formic acid
PROPERTY_NAME: RP-LC retention time (s)

COc1ccc(CC(=O)N2C[C@@H]3C[C@H](NC(=O)c4ccccc4)[C@H]2C3)cc1Cl :: 794
Cc1ccc(NC(=O)Nc2cccn3ncnc23)cc1 :: 776
Cc1ccccc1CN1CCc2nc(N3CCN(c4ccccc4F)CC3)ncc2C1 :: 796
